// values below are reported CTG-3D luminescence at 96 h
test system: HCI-002 (organoid from a triple-negative breast cancer xenograft); assay: CTG-3D luminescence at 96 h relative to day-0 seeding control (ratio to day 0); higher = more growth / less cytotoxicity; PDxO 3D drug screen (set 2), 96 h, CTG-3D normalised to day-0 seeding control.; details: 625 fM; days in culture: 168

{"columns": ["Molecule", "CTG-3D luminescence at 96 h"],
 "data": [
  ["CC(=O)c1c(C)c2cnc(Nc3ccc(N4CCNCC4)cn3)nc2n(C2CCCC2)c1=O [palbociclib]", 4.09],
  ["CC(=O)O[C@@]12CO[C@@H]1C[C@H](O)[C@@]1(C)C(=O)[C@H](O)C3=C(C)[C@@H](OC(=O)[C@H](O)[C@@H](NC(=O)OC(C)(C)C)c4ccccc4)C[C@@](O)([C@@H](OC(=O)c4ccccc4)[C@H]21)C3(C)C [docetaxel]", 4.39],
  ["Nc1cc(C(F)(F)F)c(-c2cc(N3CCOCC3)nc(N3CCOCC3)n2)cn1 [buparlisib]", 4.04],
  ["CO[C@H]1C[C@@H]2CC[C@@H](C)[C@@](O)(O2)C(=O)C(=O)N2CCCC[C@H]2C(=O)O[C@H]([C@H](C)C[C@@H]2CC[C@@H](OCCO)[C@H](OC)C2)CC(=O)[C@H](C)/C=C(\\C)[C@@H](O)[C@@H](OC)C(=O)[C@H](C)C[C@H](C)/C=C/C=C/C=C/1C [everolimus]", 3.88]
]}

Provenance of the data: the supplement of paper PMC8882468
